System Tested: cyno IL13 (cynomolgus monkey, UniProt Q0PW92 21-132)
Sequence (Q0PW92 entry or part of it): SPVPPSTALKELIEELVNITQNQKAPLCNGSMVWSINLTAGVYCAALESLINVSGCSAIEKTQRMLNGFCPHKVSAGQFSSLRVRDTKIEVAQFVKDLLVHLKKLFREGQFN
Protocol Summary: cell-based or functional assay
I'd appreciate it if you could supply Cyno IL13 STAT6 IC50 values for the items below.

- Binder: "9E11 (designed binder, N-Cap-(AR)3-C-Cap) DLGKKLLEAARAGQDDEVRILMANGADVNASDIYGSTPLHLAARHGHLEIVEVLLKNGADVNANDMIGDTPLHLAAYHGHLEIVEVLLKHGADVNASDITGETPLHLAAHNGHLEIVEVLLKYGADVNAQDKFGKTAFDISIDNGNEDLAEILQKLN"
  Result Value: "0.0334 nM"
- Binder: "5B9 (designed binder, N-Cap-(AR)3-C-Cap) DLGKKLLEAARAGQDDEVRILMANGADVNATDVFGSTPLHLAARHGHLEIVEVLLKHGADVNATDFIGDTPLHLAAYHGHLEIVEVLLKHGADVNAKNGETPLHLAAYHGHPDIVEVLLKHGADVNAQDKFGKTAFDISIDNGNEDLAEILQKLN"
  Result Value: "0.653 nM"
- Binder: "5D12 (designed binder, N-Cap-(AR)3-C-Cap) DLGKKLLEAARAGQDDEVRILMANGADVNAVDDYGSTPLHLAARQGHLEIVEVLLKNGADVNADDFIGDTPLHLAAFKGHLEIVEVLLKNGADVNASDITGETPLHLAATAGHLEIVEVLLKHGADVNAQDKFGKTAFDISIDNGNEDLAEILQKLN"
  Result Value: "0.159 nM"
- Binder: "7D7 (designed binder, N-Cap-(AR)3-C-Cap) DLGKKLLEAARAGQDDEVRILMANGADVNATDTYGSTPLHLAARHCHQEIVEVLLKHGADVNANDFIGDTPLHLAAWHGHLEIVEVLLKNGADVNAMDVTGETPLHLAAYHGHLDIVEVLLKNGADVNAQDKFGKTAFDISIDNGNEDLAEILQKLN"
  Result Value: "0.162 nM"
- Binder: "7D2 (designed binder, N-Cap-(AR)3-C-Cap) DLGKKLLEAARAGQDDEVRILMANGADVNAFDDFGSTPLHLAARSGHLEIVEVLLKHGADVNAHDMIGDTPLHLAAYHGHLEIVEVLLKYGADVNAKDTSGTTPLHLAADSGHLEIVEVLLKHGADVNAQDKFGKTAFDISIDNGNEDLAEILQKLN"
  Result Value: "0.307 nM"

Here are 2 binders. What values of Cyno IL13 STAT6 IC50 were reported for them?
1. 10A6 (designed binder, N-Cap-(AR)2-C-Cap, only 2 ARs) DLGKKLLEAARAGQDDEVRILMANGADVNAIDHFDSTPLHLAARHGHLEIVEVLLKNGADVNADDFLGDTPLHLAAYHGHLDIVEVLLKHGADVNAQDKFGKTAFDISIDNGNEDLAEILQKLN
2. IL13 binding protein 6G9 (designed binder) DLGKKLLEAARAGQDDEVRILMANGADVNARDSYGSTPLHLAAREGHLEIVEVLLKYGADVNAKDMIGDTPLHLAAYRGHLEIVEVLLKNGADVNASDITGETPLHLAAQIGHLEIVEVLLKYGADVNAQDKFGKTAFDISIDNGNEDLAEILQKLN

["1.93 nM", "0.0964 nM"]
